Test system: Pseudomonas aeruginosa
Test: Antibacterial activity against penicillin-susceptible Pseudomonas aeruginosa ATCC 27853 after 24 h by NCCLS broth microdilution method
Format: functional
Settings: ATCC 27853, 24 h
Measured MIC of individual entries
assay.readout: MIC

# structure.string, assay.readout, result
measured = [
    ("CC[C@H]1OC(=O)[C@H](C)C(=O)[C@H](C)[C@@H](O[C@@H]2O[C@H](C)C[C@H](N(C)C)[C@H]2O)[C@](C)(OC)C[C@@H](C)C(=O)[C@H](C)[C@@H](OC(=O)NCCNC(=O)/C=C/c2ccc(Cl)cc2Cl)[C@]1(C)O", "MIC", "> 128 µg/mL"),
    ("CC[C@H]1OC(=O)[C@H](C)C(=O)[C@H](C)[C@@H](O[C@@H]2O[C@H](C)C[C@H](N(C)C)[C@H]2O)[C@](C)(OC)C[C@@H](C)C(=O)[C@H](C)[C@@H](OC(=O)NCCNC(=O)c2ccc([N+](=O)[O-])cc2N)[C@]1(C)O", "MIC", "> 128 µg/mL"),
    ("CC[C@H]1OC(=O)[C@H](C)C(=O)[C@H](C)[C@@H](O[C@@H]2O[C@H](C)C[C@H](N(C)C)[C@H]2O)[C@](C)(OC)C[C@@H](C)C(=O)[C@H](C)[C@@H](OC(=O)NCCNC(=O)/C=C/c2ccccc2Cl)[C@]1(C)O", "MIC", "> 128 µg/mL"),
    ("CC[C@H]1OC(=O)[C@H](C)[C@@H](O[C@H]2C[C@@](C)(OC)[C@@H](O)[C@H](C)O2)[C@H](C)[C@@H](O[C@@H]2O[C@H](C)C[C@H](N(C)C)[C@H]2O)[C@](C)(OC)C[C@@H](C)C(=O)[C@H](C)[C@@H](O)[C@]1(C)O", "MIC", "64 µg/mL"),
]
